Cited source for all entries: patent US10399944B2

# Tgt: mEP3 (Mus musculus)
# Sequence (P30557 whole entry): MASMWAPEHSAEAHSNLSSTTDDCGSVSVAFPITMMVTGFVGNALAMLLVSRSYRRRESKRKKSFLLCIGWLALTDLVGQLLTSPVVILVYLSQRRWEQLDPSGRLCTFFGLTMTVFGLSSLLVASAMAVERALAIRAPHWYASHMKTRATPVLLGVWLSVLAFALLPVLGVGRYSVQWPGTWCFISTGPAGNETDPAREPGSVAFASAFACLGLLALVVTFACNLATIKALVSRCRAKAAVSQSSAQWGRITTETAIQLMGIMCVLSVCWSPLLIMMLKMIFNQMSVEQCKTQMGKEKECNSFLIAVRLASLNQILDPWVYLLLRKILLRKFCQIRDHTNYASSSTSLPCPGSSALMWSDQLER
Recorded Metric: Ki (nM)
Numbers only, in nM.

Dear colleague, I am looking for the recorded Ki of the following compound: CC(C)C(/C=C1\OC(=O)NC1=O)c1ccc(-c2ccc3cccc(F)c3c2)[nH]c1=O (racemic)
8.6

====

# Tgt: EP3 receptor (Homo sapiens, UniProt P43115)
# Sequence (P43115 whole entry): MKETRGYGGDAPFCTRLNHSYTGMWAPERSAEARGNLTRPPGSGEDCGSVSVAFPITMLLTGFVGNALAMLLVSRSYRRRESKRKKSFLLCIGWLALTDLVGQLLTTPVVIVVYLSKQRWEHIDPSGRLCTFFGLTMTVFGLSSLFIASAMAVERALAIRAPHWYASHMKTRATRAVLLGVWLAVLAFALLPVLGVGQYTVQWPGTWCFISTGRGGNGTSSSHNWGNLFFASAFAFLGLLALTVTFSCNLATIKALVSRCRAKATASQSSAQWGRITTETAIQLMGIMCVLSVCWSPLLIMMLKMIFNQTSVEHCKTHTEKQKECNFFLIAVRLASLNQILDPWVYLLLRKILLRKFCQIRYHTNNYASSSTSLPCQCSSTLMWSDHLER
# Assay Procedure: CHO cell cAMP assay (forskolin and sulprostone stimulated, HTRF detection)
# Condition: sulprostone 700 nM (EC80) and FSK 2 μM (EC70); read-out: CHO_cAMP IC50
Task for the reader: assign each of the following molecules its reported pIC50.
Give bare numbers, as −log10 of the molar value.

| Molecule | pIC50 |
| --- | --- |
| CCn1cnc2c(F)c(-c3ccc(C(C=C4OC(=O)NC4=O)C(C)C)c(=O)[nH]3)ccc21 (stereo not drawn) [Compound #90] | 5.26 |

Now examine the next entry.
Dear colleague, I am looking for the recorded pIC50 of the following molecule: CC(C)[C@@H](c1ccc(-c2ccc3cccc(F)c3c2)[nH]c1=O)[C@H]1OC(=O)NC1=O (relative stereo) [Compound #59]
6.21

====

# Tgt: EP3 receptor (Homo sapiens, UniProt P43115)
# Assay Procedure: CHO cell cAMP assay (forskolin and sulprostone stimulated, HTRF detection)
# Condition: sulprostone 700 nM (EC80) and FSK 2 μM (EC70); read-out: CHO_cAMP IC50
Task for the reader: assign each of the following compounds its reported IC50.
Numbers only, in nM.

| Compound | Tgt | Recorded Value |
| --- | --- | --- |
| CC(C)[C@H](C[C@@H]1OC(=O)NC1=O)c1ccc(-c2ccc3cccc(F)c3c2)[nH]c1=O (relative stereo) | EP3 receptor (Homo sapiens, UniProt P43115) | 15 |
| CC(C)C(/C=C1\OC(=O)NC1=O)c1ccc(-c2ccc3c(c2)OC(F)(F)O3)[nH]c1=O (racemic) | EP3 receptor (Homo sapiens, UniProt P43115) | 7600 |
| CC(=C1OC(=O)NC1=O)C(c1ccc(-c2ccc3cccc(F)c3c2)[nH]c1=O)C(C)C (stereo not shown) | EP3 receptor (Homo sapiens, UniProt P43115) | 39 |

Now examine the next entry.
Record CCn1ncc2c(F)cc(-c3ccc(C(/C=C4\OC(=O)NC4=O)C(C)C)c(=O)[nH]3)cc21 (racemic) : what is its IC50 with EP3 receptor (Homo sapiens, UniProt P43115)?
181

====

# Tgt: EP3 receptor (Homo sapiens)
# Assay Procedure: CHO cell cAMP assay (forskolin and sulprostone stimulated, HTRF detection)
# Condition: sulprostone 700 nM (EC80) and FSK 2 μM (EC70); read-out: CHO_cAMP IC50
Task for the reader: assign each of the following compounds its reported IC50.

Some solved cases for reference:
| Compound | Recorded Value |
| --- | --- |
| CC(C)(C)C(/C=C1/OC(=O)NC1=O)C1C=CC(c2ccc3cccc(F)c3c2)=NC1=O (mixture of isomers) [compound 275] | > 20000 nM |
| O=C1NC(=O)[C@]2(CCC[C@H](c3ccc(-c4ccc5ccccc5c4)[nH]c3=O)C2)O1 [Compound #189] | 109 nM |
| CCn1ncc2c(F)cc(-c3ccc(C(/C=C4\OC(=O)NC4=O)C4CCCCC4)c(=O)[nH]3)cc21 (stereo not shown) [Compound #127] | 548 nM |

Now examine the next entry.
Dear colleague, I am looking for the recorded IC50 of the following compound: O=C1NC(=O)C2(CCCC(c3ccc(-c4ccc5ccccc5c4)[nH]c3=O)C2)O1 (stereo not shown) [compound 188]
120 nM

====

# Tgt: UniProtKB P43115
# Assay Procedure: CHO cell cAMP assay (forskolin and sulprostone stimulated, HTRF detection)
# Condition: sulprostone 700 nM (EC80) and FSK 2 μM (EC70); read-out: CHO_cAMP IC50
Recorded Metric: pIC50
Numbers only, as −log10 of the molar value.

Some solved cases for reference:
| Compound | pIC50 |
| --- | --- |
| CC(C)C(c1ccc(-c2ccc3cccc(F)c3c2)[nH]c1=O)C1OC(=O)NC1=O (stereo not shown) | 7.04 |
| CC(C)C(CC1OC(=O)NC1=O)c1ccc(-c2ccc3cccc(F)c3c2)[nH]c1=O (stereo not shown) | 7.57 |
| CCn1ncc2c(F)cc(-c3[nH]c(=O)c(C(/C=C4\OC(=O)NC4=O)C(C)C)cc3Cl)cc21 (racemic) | 6.18 |
| CC(C)C1(c2ccc(-c3ccc4cccc(F)c4c3)[nH]c2=O)C(=O)Nc2nncn21 (stereo not shown) | 6.29 |
| CC(C)C(/C=C1\OC(=O)NC1=O)c1ccc(-c2ccc3c(c2)OCCO3)[nH]c1=O (racemic) | 6.91 |

Below are 2 compounds. Give each one its pIC50.
1. CC(C)C(/C=C1\OC(=O)NC1=O)c1ccc(-c2ccc3cnsc3c2)[nH]c1=O (stereo not shown)
2. O=C1NC(=O)/C(=C\C2(c3ccc(-c4ccc5cccc(F)c5c4)[nH]c3=O)CC2)O1

1. 5.00
2. 7.26

====

Task for the reader: assign each of the following compounds its reported pKi.
# Tgt: EP3 receptor (Homo sapiens)
Give bare numbers, as −log10 of the molar value.

| Compound | pKi |
| --- | --- |
| CC(=C1OC(=O)NC1=O)C(c1ccc(-c2ccc3cccc(F)c3c2)[nH]c1=O)C(C)C (stereo not drawn) | 7.77 |
| CCn1ncc2c(F)cc(-c3ccc(C(/C=C4\OC(=O)NC4=O)C4CCCCC4)c(=O)[nH]3)cc21 (stereo not drawn) | 7.34 |
| CC(C)C(/C=C1\OC(=O)NC1=O)c1ccc(-c2ccc3c(c2)OC(F)(F)O3)[nH]c1=O (racemic) | 5.25 |
| CCn1ncc2c(F)cc(-c3[nH]c(=O)c(C(/C=C4\OC(=O)NC4=O)C(C)C)cc3Cl)cc21 (racemic) | 6.31 |

Now examine the next entry.
Dear colleague, I am looking for the recorded pKi of the following compound: CC(C)C(CC1OC(=O)NC1=O)c1ccc(-c2ccc3cccc(F)c3c2)[nH]c1=O (stereo not drawn)
8.10
